Sourced from patent US20220033481A1

TEST_SYSTEM: T1, cynomolgus monkey transferrin (cynomolgus monkey, UniProt A0A2K5UXZ0 20-695)
T1 construct: also called cynomolgus transferrin
EXPERIMENT_DESCRIPTION: SPR, BIAcore T200, cynomolgus monkey transferrin as ligand, sdAb as analyte
MEASURED_QUANTITY: koff (s⁻¹)

1. AS01274VHa-A49 (VHH, Humanized variant of AS01274, C-terminal 6xHis tag) VHH: EVQLVESGGGLVQPGGSLRLSCAASGSIASIATMAWYRQAPGKGLELVSGITRGGSTKYADSVKGRFTISRDNSKNTLYLQMNSLRAEDTAVYYCTDYSRKYYQDYWGQGTLVTVSS: 7.9e-05
2. AS01299VH3a-M78 (VHH, Humanized variant of AS01299, C-terminal 6xHis tag) VHH: EVQLVESGGGLVQPGGSLRLSCAASGSIFSIATMAWYRQAPGKGLELVAGITRSGSTNYRDSVKGRFTISRDNSKNTLYLQMNSLRAEDTAVYYCTDYSSRYYHDYWGQGTLVTVSS: 0.0003
3. AS01299VH4-L47 (VHH, Humanized variant of AS01299, C-terminal 6xHis tag; also called AS01299VH4-L47-2) VHH: EVQLVESGGGLVQPGGSLRLSCAASGSIFSIATMAWYRQAPGKGLEWVSGITRSGSTNYRDSVKGRFTISRDNSKNTLYLQMNSLRAEDTAVYYCTDYSSRYYHDYWGQGTLVTVSS: 0.00066
4. AS01299VH3a (VHH, Humanized variant of AS01299, C-terminal 6xHis tag) VHH: EVQLVESGGGLVQPGGSLRLSCAASGSIFSIATMAWYRQAPGKGLELVAGITRSGSTNYRDSVKGRFTISRDNSKNTMYLQMNSLRAEDTAVYYCTDYSSRYYHDYWGQGTLVTVSS: 0.00028
5. AS01299VH4 (VHH, Humanized variant of AS01299, C-terminal 6xHis tag) VHH: EVQLVESGGGLVQPGGSLRLSCAASGSIFSIATMAWYRQAPGKGLELVSGITRSGSTNYRDSVKGRFTISRDNSKNTLYLQMNSLRAEDTAVYYCTDYSSRYYHDYWGQGTLVTVSS: 0.0003
6. AS01274VHa (VHH, Humanized variant of AS01274, C-terminal 6xHis tag) VHH: EVQLVESGGGLVQPGGSLRLSCAASGSIASIATMAWYRQAPGKGLELVAGITRGGSTKYADSVKGRFTISRDNSKNTLYLQMNSLRAEDTAVYYCTDYSRKYYQDYWGQGTLVTVSS: 8.1e-05
7. AS01299VH3a-A49 (VHH, Humanized variant of AS01299, C-terminal 6xHis tag) VHH: EVQLVESGGGLVQPGGSLRLSCAASGSIFSIATMAWYRQAPGKGLELVSGITRSGSTNYRDSVKGRFTISRDNSKNTMYLQMNSLRAEDTAVYYCTDYSSRYYHDYWGQGTLVTVSS: 0.00027
8. AS01299 sdAb (VHH, Llama sdAb made in E. coli with a C-terminal 6xHis tag; also called sdAb AS01299) VHH: QVQLVESGGGLVQPGGSLRLSCAASGSIFSIATMAWYRQAPGKQRELVAGITRSGSTNYRDSVKGRFTISRDNAKNTMYLQMNSLKPEDTAVYYCTDYSSRYYHDYWGQGTQVTVSS: 0.00056
9. AS01299VH3a-L47 (VHH, Humanized variant of AS01299, C-terminal 6xHis tag; also called AS01299VH3a-L47-2) VHH: EVQLVESGGGLVQPGGSLRLSCAASGSIFSIATMAWYRQAPGKGLEWVAGITRSGSTNYRDSVKGRFTISRDNSKNTMYLQMNSLRAEDTAVYYCTDYSSRYYHDYWGQGTLVTVSS: 0.00048
10. AS01274 sdAb (VHH, Llama sdAb made in E. coli with a C-terminal 6xHis tag; also called sdAb AS01274) VHH: QVQLVESGGGLVQPGGSLRLSCVASGSIASIATMAWYRQAPGQQRELVAGITRGGSTKYADSVKGRFTISRDNAKNTLYLQMNSLKPDDTAVYYCTDYSRKYYQDYWGQGTQVTVSS: 8.9e-05
